Every entry's value here was drawn from the supplement of paper PMC9233669.

Tested on: biotinyl-Val-oxazolone
Test: self-aminoacylation, catalytic enhancement (BVO) (fold over background); higher = more active; k-Seq, kA / k0A0; sequences stand for … in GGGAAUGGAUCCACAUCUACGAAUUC…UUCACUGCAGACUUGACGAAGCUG
Variants at the floor of the assay were thinned out.
Tag: True if measured self-aminoacylation is not below 2, False if it is.

In: # check: self-aminoacylation of CUGCAUCAAACAAUCGGUCUG [Fam1A.1 aminoacylation ribozyme variant] is greater than or equal to 2
Out: False

In: What would you report for CUUCACCUAGGUCCUCGGGUG [Fam2.2 aminoacylation ribozyme variant] ?
Out: True

In: What would you report for CUUACCCUGUUCAUCGAGUGA [Fam2.1 aminoacylation ribozyme variant] ?
Out: True

In: What would you report for AUUAACCUAGGUCAUCGAGUG [Fam2.2 aminoacylation ribozyme variant] ?
Out: True

In: What would you report for AUUCACCUAGGUCAUCUUGUG [Fam2.2 aminoacylation ribozyme variant] ?
Out: False

In: What would you report for AUUACCCUGGUCAUUAAGUGA [Fam2.1 aminoacylation ribozyme variant] ?
Out: True

In: What would you report for AUUACCGUGGUCAUCGAGUGU [Fam2.1 aminoacylation ribozyme variant] ?
Out: True

In: What would you report for AAGUUCGCUAAUAUUCGCAAG [Fam3.1 aminoacylation ribozyme variant] ?
Out: False

In: What would you report for CUAGUUCAAACAAUCCGUCUG [Fam1A.1 aminoacylation ribozyme variant] ?
Out: False

In: What would you report for UUUACCCUGGUCAUCUAGUGA [Fam2.1 aminoacylation ribozyme variant] ?
Out: True

In: What would you report for CCACUCUUCAAGCAAUCGGCC [Fam1B.1 aminoacylation ribozyme variant] ?
Out: True

* * *

Tested on: biotinyl-Ile-oxazolone
Assay: self-aminoacylation, catalytic enhancement (BIO) (fold over background); higher = more active; k-Seq, kA / k0A0; sequences stand for … in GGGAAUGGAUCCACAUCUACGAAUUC…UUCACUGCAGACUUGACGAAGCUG
Fewer inactive variants are shown than the library holds.
The reader will find reported self-aminoacylation values listed item by item below.
Give the value as a plain number.

Would you please look over these solved cases?
[[record]]
chain = "CCACAGUUCAUGCAAUCGGUC [Fam1B.1 aminoacylation ribozyme variant]"
target_or_system = "biotinyl-Ile-oxazolone"
readout_kind = "self-aminoacylation"
observed_result = 1.1

[[record]]
chain = "CUCCUCCAAACAAUCGGUCUG [Fam1A.1 aminoacylation ribozyme variant]"
target_or_system = "biotinyl-Ile-oxazolone"
readout_kind = "self-aminoacylation"
observed_result = 1.06


In: // lookup self-aminoacylation | system=biotinyl-Ile-oxazolone | key= CCACCCUUCAGGCAAUCGGUC [Fam1B.1 aminoacylation ribozyme variant]
Out: 1.71

In: What would you report for AUUCAACUAGGUCAUCGGAUG [Fam2.2 aminoacylation ribozyme variant] ?
Out: 0.675

In: What would you report for AUUCAACUAGGUCAGCGGGUG [Fam2.2 aminoacylation ribozyme variant] ?
Out: 3.15

In: What would you report for UUUCAGCUAGGUCAUCGGGUG [Fam2.2 aminoacylation ribozyme variant] ?
Out: 4.98

In: What would you report for AUUACCCUGGACACCGAGUGA [Fam2.1 aminoacylation ribozyme variant] ?
Out: 2.15
